Please provide measured SPOT peptide array binding signal intensity for the entries that follow.
Molecular target: CaRvs167
Test: SPOT peptide array binding signal intensity (averaged, normalized) (arbitrary units (background-subtracted, floor 0; scale differs between SH3 domains)); higher = stronger binding of the SH3 domain to the peptide
Give bare numbers.

EQEEIAPSLPSRNSI; 43.8

Batch request: SPOT peptide array binding signal intensity per item, same order as input.
1. ERPKRRAPPPVPKKP
2. KIRRSSLMIPNPQQF
3. TKPTPPPKPSHLKPK

1: 16.7; 2: 42.3; 3: 4
